Measured values drawn from patent US12343347B2 for this set.

Assign Plasma Stability Human (1 hour), percent of pro-drug metabolized to riluzole to each entry below.
Test: Plasma stability in fresh human plasma
Type: in vitro ADME
Details: 1 uM, 37° C.
Answer by giving the amount and then stating its unit.

For record NCCCCC(=O)Nc1nc2ccc(OC(F)(F)F)cc2s1 [Cpd 26] the listed Plasma Stability Human (1 hour), percent of pro-drug metabolized to riluzole is 5%

For record N[C@@H](COCc1ccccc1)C(=O)Nc1nc2ccc(OC(F)(F)F)cc2s1 [Cpd 10] the listed Plasma Stability Human (1 hour), percent of pro-drug metabolized to riluzole is 9%

For record CC(C)[C@H](N)C(=O)Nc1nc2ccc(OC(F)(F)F)cc2s1 [Cpd 11] the listed Plasma Stability Human (1 hour), percent of pro-drug metabolized to riluzole is 11%

For record COC(=O)CCC(=O)Nc1nc2ccc(OC(F)(F)F)cc2s1 [Cpd 21] the listed Plasma Stability Human (1 hour), percent of pro-drug metabolized to riluzole is 25%

For record CC(C)(C)OC(=O)CCC(=O)Nc1nc2ccc(OC(F)(F)F)cc2s1 [Cpd 22] the listed Plasma Stability Human (1 hour), percent of pro-drug metabolized to riluzole is 0%

For record CCCOC(=O)Nc1nc2ccc(OC(F)(F)F)cc2s1 [Cpd 14] the listed Plasma Stability Human (1 hour), percent of pro-drug metabolized to riluzole is 0%

For record C[C@H](N)C(=O)Nc1nc2ccc(OC(F)(F)F)cc2s1 [Cpd 7] the listed Plasma Stability Human (1 hour), percent of pro-drug metabolized to riluzole is 10%

For record CC(C)COC(=O)Nc1nc2ccc(OC(F)(F)F)cc2s1 [Cpd 16] the listed Plasma Stability Human (1 hour), percent of pro-drug metabolized to riluzole is 0%

For record O=C(Cc1ccccc1[N+](=O)[O-])Nc1nc2ccc(OC(F)(F)F)cc2s1 [Cpd 27] the listed Plasma Stability Human (1 hour), percent of pro-drug metabolized to riluzole is 13%

For record N[C@H](COCc1ccccc1)C(=O)Nc1nc2ccc(OC(F)(F)F)cc2s1 [Cpd 5] the listed Plasma Stability Human (1 hour), percent of pro-drug metabolized to riluzole is 3%

For record CN(C)CCOC(=O)Nc1nc2ccc(OC(F)(F)F)cc2s1 [Cpd 18] the listed Plasma Stability Human (1 hour), percent of pro-drug metabolized to riluzole is 0%

For record C[C@@H](N)C(=O)Nc1nc2ccc(OC(F)(F)F)cc2s1 [Cpd 2] the listed Plasma Stability Human (1 hour), percent of pro-drug metabolized to riluzole is 15%

For record N[C@@H](Cc1ccccc1)C(=O)Nc1nc2ccc(OC(F)(F)F)cc2s1 [Cpd 9] the listed Plasma Stability Human (1 hour), percent of pro-drug metabolized to riluzole is 7%

For record Nc1ccc(C(=O)Nc2nc3ccc(OC(F)(F)F)cc3s2)cc1 [Cpd 28] the listed Plasma Stability Human (1 hour), percent of pro-drug metabolized to riluzole is 0%

For record NCC(=O)Nc1nc2ccc(OC(F)(F)F)cc2s1 [Cpd 1] the listed Plasma Stability Human (1 hour), percent of pro-drug metabolized to riluzole is 3%

For record CCCCOC(=O)Nc1nc2ccc(OC(F)(F)F)cc2s1 [Cpd 15] the listed Plasma Stability Human (1 hour), percent of pro-drug metabolized to riluzole is 0%

For record O=C(CCC(=O)Nc1nc2ccc(OC(F)(F)F)cc2s1)NCc1cccnc1 [Cpd 23] the listed Plasma Stability Human (1 hour), percent of pro-drug metabolized to riluzole is 0%

For record CNCCCCC(=O)Nc1nc2ccc(OC(F)(F)F)cc2s1 [Cpd 25] the listed Plasma Stability Human (1 hour), percent of pro-drug metabolized to riluzole is 0%

For record COC(=O)Nc1nc2ccc(OC(F)(F)F)cc2s1 [Cpd 12] the listed Plasma Stability Human (1 hour), percent of pro-drug metabolized to riluzole is 15%

For record CCOC(=O)Nc1nc2ccc(OC(F)(F)F)cc2s1 [Cpd 13] the listed Plasma Stability Human (1 hour), percent of pro-drug metabolized to riluzole is 0%

For record CN(C)CCCOC(=O)Nc1nc2ccc(OC(F)(F)F)cc2s1 [Cpd 19] the listed Plasma Stability Human (1 hour), percent of pro-drug metabolized to riluzole is 0%

For record N[C@H](Cc1ccccc1)C(=O)Nc1nc2ccc(OC(F)(F)F)cc2s1 [Cpd 4] the listed Plasma Stability Human (1 hour), percent of pro-drug metabolized to riluzole is 6%

For record O=C(O)CCC(=O)Nc1nc2ccc(OC(F)(F)F)cc2s1 [Cpd 20] the listed Plasma Stability Human (1 hour), percent of pro-drug metabolized to riluzole is 16%
